Tested on: UACC-62 melanoma
Experiment: NCI tumour cell line growth inhibition, 48 h
Provide the recorded TGI for the entries that follow.

Query: Tell me the measured TGI of O=C1N(CN2CCOCC2)CN(CN2CCOCC2)C(=O)N1Cc1ccc(CN2C(=O)N(CN3CCOCC3)CN(CN3CCOCC3)C2=O)cc1 , please.
Response: 85.4 µM

Query: Tell me the measured TGI of CNC(C)Cc1ccccc1OC (configuration not stated) , please.
Response: > 100 µM

Query: Tell me the measured TGI of Nc1nc(OCC2CCCCC2)c2[nH]cnc2n1 , please.
Response: > 74.6 µM

Query: Tell me the measured TGI of CCN1C(=O)N(CC)C2C1NN=c1s/c(=C\c3ccc(OC)cc3)c(=O)n12 (configuration not stated) , please.
Response: > 100 µM

Query: Tell me the measured TGI of CNCCNc1nc2ccccc2c2c(=O)c3cccc(C)c3sc12 , please.
Response: 3.39 µM

Query: Tell me the measured TGI of N=C(N)SCc1cccc([N+](=O)[O-])c1 , please.
Response: > 100 µM

Query: Tell me the measured TGI of Nc1c(Br)cc(-c2nc3ccccc3s2)cc1Br , please.
Response: > 100 µM

Query: Tell me the measured TGI of N=C1/C(=C2\Nc3ccccc3S2)CC(=O)N1c1ccc(SC(F)F)cc1 , please.
Response: > 100 µM

Query: Tell me the measured TGI of CC(C)NC(=O)OCc1c(COC(=O)NC(C)C)c(-c2cc[n+](COC(=O)C(C)C)cc2)n2c1CCC2 , please.
Response: > 100 µM

Query: Tell me the measured TGI of COc1c(C)c(O)c2c(c1C)OC(c1ccccc1)CC2=O (configuration not stated) , please.
Response: > 100 µM

Query: Tell me the measured TGI of CC1(O)COCCCCOc2c(CN)cccc2NC(=O)c2nc(cnc2N)-c2ccc(cc2)S(=O)(=O)C(C)(C)C1 (configuration not stated) , please.
Response: 3.36 µM

Query: Tell me the measured TGI of COc1cccc(/C=C\c2ccnc3ccccc23)c1 , please.
Response: > 10 µM

Query: Tell me the measured TGI of O=c1c2ccccc2nc2sc(/N=C/C=C/c3ccccc3)nn12 , please.
Response: > 100 µM

Query: Tell me the measured TGI of Nc1nnc2oc3ccc4ccccc4c3cc1-2 , please.
Response: > 100 µM

Query: Tell me the measured TGI of COC(=O)c1ccccc1C1=C([N+](=O)[O-])C(c2cccc(Br)c2)C(C#N)=C(N)O1 (configuration not stated) , please.
Response: 42.7 µM

Query: Tell me the measured TGI of OCCCCCCCCCCCOc1ccc(C2OCC3(CC=CCC3)CO2)cc1 (configuration not stated) , please.
Response: 32.8 µM

Query: Tell me the measured TGI of O=C(O)c1cn(C2CC2)c2cc(N3CCN(Cc4ccc5ccccc5c4O)CC3)c(F)cc2c1=O , please.
Response: > 100 µM

Query: Tell me the measured TGI of COC(=O)C1=C(\O)C[C@@]2(C)CC[C@@H](C(=O)OC)C2C/C=C\1C(=O)OC (some centres not stated) , please.
Response: > 100 µM

Query: Tell me the measured TGI of COc1ccc2c(c1)/C(=C\c1c(Cl)n(-c3ccccc3)c3ccccc13)C(=O)N2 , please.
Response: 32.6 µM

Query: Tell me the measured TGI of NNc1ncc2c(n1)-c1ccccc1OC2 , please.
Response: > 100 µM

Query: Tell me the measured TGI of O=C(Nc1ncc([N+](=O)[O-])s1)c1ccccc1O , please.
Response: 41.7 µM

Query: Tell me the measured TGI of Cc1cn2c(/C=C3/C(=O)Nc4ccc(Cl)cc43)c(C)nc2s1 , please.
Response: 54.7 µM

Query: Tell me the measured TGI of COc1ccc(/C=C2/CN(CCC#N)C/C(=C\c3ccc(OC)cc3)C2=O)cc1 , please.
Response: 3.81 µM

Query: Tell me the measured TGI of O=C1c2ccccc2C(=O)c2c1ccc1c2N=C(c2ccc(Br)cc2)CC(c2cccc3ccccc23)N1 (configuration not stated) , please.
Response: > 100 µM

Query: Tell me the measured TGI of COC(=O)N/N=C(/c1nc2ccc([N+](=O)[O-])cc2[nH]c1=O)C(O)c1ccc(OC)c(OC)c1 (configuration not stated) , please.
Response: > 100 µM

Query: Tell me the measured TGI of Cc1c(N=Nc2ccc(Cl)cc2)c(C)n(C2OC(CO)C(O)C(O)C2O)c(=S)c1C#N (configuration not stated) , please.
Response: 30.5 µM

Query: Tell me the measured TGI of Cc1ccc(S(=O)(=O)N/N=C2\CC(C)OC3=C2CCCCCC3)cc1 (configuration not stated) , please.
Response: 30.6 µM

Query: Tell me the measured TGI of N#CCC1(c2ccc(Cl)cc2)NC(=O)c2ccccc21 (configuration not stated) , please.
Response: > 100 µM

Query: Tell me the measured TGI of Cc1ccc(/C=C2\NC(=S)N(CN3CCCCC3)C2=O)cc1 , please.
Response: > 100 µM

Query: Tell me the measured TGI of COc1ccc(/C=C2\CCc3cc(OC)c(OC)cc3C2=O)cc1 , please.
Response: > 10 µM

Query: Tell me the measured TGI of C[N+]1(C)C[C@@H](O)C[C@@H]1C(=O)[O-] , please.
Response: > 100 µM

Query: Tell me the measured TGI of COc1cc(-c2nn(-c3cccc(NC(=O)CCN4CCN(C)CC4)c3)cc2-c2ccncc2)ccc1Cl , please.
Response: 2.66 µM

Query: Tell me the measured TGI of Cc1nc2ccc(N)cc2[nH]c1=O , please.
Response: > 100 µM

Query: Tell me the measured TGI of Cc1cccc(/C=N/NC(=S)N(C)CCc2ccccn2)n1 , please.
Response: 1.02 µM

Query: Tell me the measured TGI of C[C@H](c1ccccc1)N(CCC(=O)O)C(=O)CCN(C(=O)CCN(C(=O)CCN[C@H](C)c1ccccc1)[C@H](C)c1ccccc1)[C@H](C)c1ccccc1 , please.
Response: > 100 µM

Query: Tell me the measured TGI of O=c1c2cc(O)c(O)cc2oc2cc(O)c(C3OC(CO)C(O)C(O)C3O)c(O)c12 (configuration not stated) , please.
Response: > 100 µM

Query: Tell me the measured TGI of CC1COCCN1CC#CCOC(=O)c1cc2ccccc2oc1=O (configuration not stated) , please.
Response: > 100 µM
